Experiment: qHTS assay for identifying genotoxic compounds that show differential cytotoxicity against isogenic chicken DT40 cell lines with known DNA damage response pathways - Rad54/Ku70 mutant cell line (AID 743015); further: nearly all actives have a fitted effect of over 60% in size
Settings: DT40 Rad54/Ku70 mutant viability, CellTiter-Glo, 40 h; series mostly up to 66.8 µM
Excerpt: National Center for Advancing Translational Sciences [NCATS] NIH Chemical Genomics Center [NCGC] U.S. Environmental Protection Agency [EPA] National Institutes of Environmental Health Sciences [NIEHS] National Toxicology Program [NTP] U.S. Food and Drug Administration [FDA] DNA repair pathways play a critical role in cellular homeostasis by repairing DNA damage induced by endogenous processes and xenobiotics. […]
Results filed as inconclusive are left out. Active and inactive are the calls of the source. The call rests on the fitted dose curve; in most records, active means well fitted cell-killing curve with a large enough effect in the repeat runs; inconclusive means weak or mixed curves; inactive means no such curve, though single readings can be large or run the other way.
Respond with a class label; see yes = active, no = inactive

Query: I'd appreciate the recorded outcome for `CC(=O)Oc1ccccc1C(=O)Nc1ncc([N+](=O)[O-])s1` from this test.
Reply: yes

Query: I'd appreciate the recorded outcome for `CC(=O)CC/C=C(\C)CCC=C(C)C` from this test.
Reply: no

Query: I'd appreciate the recorded outcome for `CC(=O)c1ccccn1` from this test.
Reply: no

Query: I'd appreciate the recorded outcome for CCC(C)(O)CCCC(C)C (stereo not drawn) from this test.
Reply: no

Query: I'd appreciate the recorded outcome for CC(C)CC(C)(O)C#CC(C)(O)CC(C)C (stereo not drawn) from this test.
Reply: yes

Query: I'd appreciate the recorded outcome for `CCCCOCCOCCOCCO` from this test.
Reply: no

Query: I'd appreciate the recorded outcome for `C[C@]12CC[C@H]3[C@@H](CCC4=CC(=O)CC[C@@]43C)[C@@H]1CC[C@@H]2C(=O)CO` from this test.
Reply: yes

Query: I'd appreciate the recorded outcome for `O=C(c1ccccc1)c1ccccc1O` from this test.
Reply: no

Query: I'd appreciate the recorded outcome for `O=C(COc1ccc(Cl)cc1)N1CCN(Cc2ccc3c(c2)OCO3)CC1` from this test.
Reply: yes

---

Assay: qHTS assay to identify small molecule antagonists of the glucocorticoid receptor (GR) signaling pathway - cell viability counter screen (AID 720693); further: nearly all actives have a fitted effect of over 55% in size
Conditions: GR-bla HeLa viability, CellTiter-Glo luminescence, 18 h, with 5 nM dexamethasone present; series mostly up to 58.5 µM
Records with an inconclusive call do not appear. Calls of active or inactive are those of the source. The call rests on the fitted dose curve; in most records, active means well fitted cell-killing curve with a large enough effect in the repeat runs; inconclusive means weak or mixed curves, or effect the other way; inactive means no such curve, though single readings can be large or run the other way.
ASSAY_READOUT: outcome

COc1c(Cl)c(Cl)c(Cl)c(Cl)c1Cl    inactive
CCC(C)CO (stereo unspecified)    inactive
CCCCOCCOCCO    inactive
CCCCC/C=C/C=C/C=O    inactive
CCCCOCCOCCOCCO    inactive

Query: I would be grateful if you could share the reported outcome for `CC(C)(C)NC(=O)[C@H]1CC[C@H]2[C@@H]3CC[C@H]4NC(=O)C=C[C@]4(C)[C@H]3CC[C@]12C` .
Reply: inactive

Query: I would be grateful if you could share the reported outcome for `c1ccc2c(c1)Oc1ccccc1S2` .
Reply: inactive

Query: I would be grateful if you could share the reported outcome for `CCCC(=O)O` .
Reply: inactive

Query: I would be grateful if you could share the reported outcome for `O=CCCCC=O` .
Reply: inactive

Query: I would be grateful if you could share the reported outcome for `O=Cc1ccccc1O` .
Reply: inactive

Query: I would be grateful if you could share the reported outcome for `CCCCCCCCCCCO` .
Reply: inactive

---

Assay: qHTS assay to identify small molecule agonists of the estrogen receptor beta (ER-beta) signaling pathway - cell viability counter screen (AID 1259380); further: nearly all actives have a fitted effect of over 30% in size
Details: ER-beta-bla HEK293T viability, CellTiter-Glo luminescence, 16 h; series mostly up to 92.4 µM
Records with an inconclusive call do not appear. The source made the active and inactive calls. Calls come from the whole dose curve; as a rule, active = well fitted cell-killing curve with a large enough effect in the repeat runs; inconclusive = weak or mixed curves, or effect the other way; inactive = flat fitted curve, though single readings scatter.
Respond with a class label; see true (1) = active, false (0) = inactive

C=C(C)C1CC=C(C)CC1 (centres undefined)    false (0)
Cc1cccc([N+](=O)[O-])c1C    false (0)
CCCCNS(=O)(=O)c1ccccc1    false (0)
c1ccc2c(c1)c1cccc3ccc4cccc2c4c31    false (0)
c1cc(-c2ccncc2)ccn1    false (0)

For the next question, use this compound.
Query: I'd appreciate the recorded outcome for CCC(C)c1ccccc1O (centres undefined) from this test.
Reply: false (0)

---

Assay: Human pregnane X receptor (PXR) small molecule agonists, qHTS cell viability counter screen (AID 1346977); further: nearly all actives have a fitted effect of over 50% in size
Details: PXR-Luc HepG2 viability, CellTiter-Fluor, 24 h; series mostly up to 92.4 µM
Records with an inconclusive call do not appear. Calls of active or inactive are those of the source. Calls come from the whole dose curve; as a rule, active = well fitted cell-killing curve with a large enough effect in the repeat runs; inconclusive = weak or mixed curves, or effect the other way; inactive = flat fitted curve, though single readings scatter.
Respond with a class label; see 1 for active, -1 for inactive

Cc1[nH]c(=O)c(C#N)cc1-c1ccncc1    -1
CCOC(=O)C(C#N)=C(c1ccccc1)c1ccccc1    -1
CC1=CC2C3CC(C=C3C)C2C1 (stereo not drawn)    -1
COc1ccccc1/C=C/C=O    -1
CCCCC/C=C/C=C/C=O    -1

Query: I'd appreciate the recorded outcome for `CCCCNS(=O)(=O)c1ccccc1` from this test.
Reply: -1

Query: I'd appreciate the recorded outcome for `Cc1c(C(N)=O)cc([N+](=O)[O-])cc1[N+](=O)[O-]` from this test.
Reply: -1

---

Biological target: Aryl hydrocarbon receptor (Homo sapiens) (UniProt P35869)
Sequence (P35869 whole entry, looked up): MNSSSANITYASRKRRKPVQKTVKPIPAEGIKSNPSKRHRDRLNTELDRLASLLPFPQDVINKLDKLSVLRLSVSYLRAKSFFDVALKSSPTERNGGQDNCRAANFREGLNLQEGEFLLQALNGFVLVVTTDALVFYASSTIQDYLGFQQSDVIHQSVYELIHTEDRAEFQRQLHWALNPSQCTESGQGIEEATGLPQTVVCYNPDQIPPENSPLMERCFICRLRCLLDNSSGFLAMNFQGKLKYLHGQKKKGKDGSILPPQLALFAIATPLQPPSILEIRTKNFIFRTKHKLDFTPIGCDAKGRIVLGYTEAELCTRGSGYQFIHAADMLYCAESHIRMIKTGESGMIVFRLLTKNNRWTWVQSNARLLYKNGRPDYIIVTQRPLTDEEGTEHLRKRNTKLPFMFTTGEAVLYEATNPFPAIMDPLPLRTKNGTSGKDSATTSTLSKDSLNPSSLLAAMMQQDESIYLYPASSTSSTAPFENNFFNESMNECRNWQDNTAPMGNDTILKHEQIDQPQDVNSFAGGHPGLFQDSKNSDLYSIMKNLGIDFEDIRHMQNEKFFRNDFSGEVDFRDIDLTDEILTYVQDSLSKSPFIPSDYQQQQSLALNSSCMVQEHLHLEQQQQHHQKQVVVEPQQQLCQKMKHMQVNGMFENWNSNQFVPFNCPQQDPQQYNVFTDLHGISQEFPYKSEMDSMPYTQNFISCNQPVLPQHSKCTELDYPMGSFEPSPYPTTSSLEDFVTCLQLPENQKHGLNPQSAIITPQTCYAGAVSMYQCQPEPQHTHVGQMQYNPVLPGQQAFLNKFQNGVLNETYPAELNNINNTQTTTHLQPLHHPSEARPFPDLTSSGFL
Assay: qHTS assay to identify small molecule that activate the aryl hydrocarbon receptor (AhR) signaling pathway (AID 743085); further: nearly all actives have a fitted effect of over 15% in size;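 on activation: HG2L7.5c1 human HepG2 liver cells with stably integrated DRE-driven firefly reporter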
Conditions: HepG2 AhR-luc (HG2L7.5c1), luciferase, 24 h; series mostly up to 70.3 µM
Records with an inconclusive call do not appear. Active and inactive are the calls of the source. The call rests on the fitted dose curve; in most records, active means well fitted activation curve with a large enough effect in the repeat runs; inconclusive means weak or mixed curves; inactive means no such curve, though single readings can be large or run the other way.
Respond with a class label; see YES (active), NO (inactive)

NNc1ccc(C(=O)O)cc1    NO

Query: I'd appreciate the recorded outcome for `CCCCCCCCCC(=O)OC` from this test.
Reply: NO

Query: I'd appreciate the recorded outcome for `O=C(Nc1ccc([N+](=O)[O-])cc1Cl)c1cc(Cl)ccc1O` from this test.
Reply: YES

---

Target: Estrogen receptor (Homo sapiens) (UniProt P03372)
Sequence (P03372 whole entry, looked up): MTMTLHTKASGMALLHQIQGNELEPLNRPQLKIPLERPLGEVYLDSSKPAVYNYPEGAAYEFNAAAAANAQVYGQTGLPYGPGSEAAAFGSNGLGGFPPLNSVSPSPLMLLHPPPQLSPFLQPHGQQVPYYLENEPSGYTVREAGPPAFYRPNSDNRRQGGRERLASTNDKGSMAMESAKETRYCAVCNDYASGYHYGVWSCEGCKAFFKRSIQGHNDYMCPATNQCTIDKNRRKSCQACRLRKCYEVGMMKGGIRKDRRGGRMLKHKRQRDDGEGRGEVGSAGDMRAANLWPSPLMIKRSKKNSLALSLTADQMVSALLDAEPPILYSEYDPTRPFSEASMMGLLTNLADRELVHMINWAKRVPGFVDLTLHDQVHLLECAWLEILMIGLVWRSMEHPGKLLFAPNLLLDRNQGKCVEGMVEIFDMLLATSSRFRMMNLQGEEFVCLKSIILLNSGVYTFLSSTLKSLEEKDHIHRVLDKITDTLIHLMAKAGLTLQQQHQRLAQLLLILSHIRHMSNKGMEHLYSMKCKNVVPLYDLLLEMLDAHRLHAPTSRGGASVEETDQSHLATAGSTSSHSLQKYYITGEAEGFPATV
Assay: qHTS assay to identify small molecule agonists of the estrogen receptor alpha (ER-alpha) signaling pathway in the presence of an antagonist (AID 1259383); further: top concentration of the series differs between compounds; nearly all actives have a fitted effect of over 15% in size
Details: VM7Luc4E2 cells, ERE-luciferase, +ICI-182,780, 22 h; series mostly up to 92.4 µM
Calls of active or inactive are those of the source. The call rests on the fitted dose curve.
ASSAY_READOUT: outcome

Field: example entries. Status: answers known.
CC(C)OB(OC(C)C)OC(C)C    inactive
COC(=O)C1=C(C)NC(C)=C(C(=O)OCCN(C)Cc2ccccc2)C1c1cccc([N+](=O)[O-])c1 (stereo not drawn)    inactive
O=[N+]([O-])c1ccc2c(c1)Cc1ccccc1-2    inactive
CNCCCC12CCC(c3ccccc31)c1ccccc12    inactive
O=C(O)c1ccccc1Nc1cccc(C(F)(F)F)c1    inactive

The record that follows has no outcome shown yet.
Query: I would be grateful if you could share the reported outcome for COC(C)COC(C)COC(C)CO (stereo not drawn) .
Reply: inactive

---

Biological target: Retinoic acid receptor RXR-alpha (Homo sapiens)
Test: qHTS assay to identify small molecule agonists of the RXR signaling pathway (AID 1159527); further: nearly all actives have a fitted effect of over 35% in size
Settings: HEK293T RXRa-UAS-bla, beta-lactamase ratio, 16 h; series mostly up to 76.8 µM
Records with an inconclusive call do not appear. Calls of active or inactive are those of the source. The call rests on the fitted dose curve.
Respond with a class label; see active, inactive

Some solved entries appear below for comparison.
CCCCC(CC)COCC1CO1 (configuration not stated)    inactive
c1ccc2cc(Nc3ccc(Nc4ccc5ccccc5c4)cc3)ccc2c1    inactive
NC=O    inactive
c1ccc2c(c1)Oc1ccccc1S2    inactive
CC(CCC(=O)O)(c1ccc(O)cc1)c1ccc(O)cc1    inactive
COC(=O)Nc1nc2ccc(S(=O)c3ccccc3)cc2[nH]1 (configuration not stated)    inactive
CC(=O)C1(C)CC2=C(CCCC2(C)C)CC1C (configuration not stated)    inactive
CCCCOCCOCCO    inactive

Query: I'd appreciate the recorded outcome for `Brc1cc(Oc2cc(Br)c(Br)c(Br)c2Br)c(Br)c(Br)c1Br` from this test.
Reply: inactive

Query: I'd appreciate the recorded outcome for `O=P(O)(O)O` from this test.
Reply: inactive

Query: I'd appreciate the recorded outcome for `O=S(=O)(O)c1ccc(O)cc1` from this test.
Reply: inactive

Query: I'd appreciate the recorded outcome for `CC(=O)c1ccccn1` from this test.
Reply: inactive

Query: I'd appreciate the recorded outcome for `CCCC(=O)O` from this test.
Reply: inactive

---

Experiment: qHTS assay to identify small molecule antagonists of the retinoid-related orphan receptor gamma (ROR-gamma) signaling pathway - cell viability counter screen (AID 1159520); further: nearly all actives have a fitted effect of over 50% in size
Details: Tet-on RORgamma CHO cells viability, ATP luminescence, 16 h; series mostly up to 92.4 µM
Records with an inconclusive call do not appear. Activity calls are given as the source filed them. Calls follow the shape of the dose curve; as a rule, active = well fitted cell-killing curve with a large enough effect in the repeat runs; inconclusive = weak or mixed curves, or effect the other way; inactive = no such curve, though single readings can be large or run the other way.
Respond with a class label; see active, inactive

Cc1c(C(N)=O)cc([N+](=O)[O-])cc1[N+](=O)[O-]    inactive

For the next question, use this compound.
Query: I'd appreciate the recorded outcome for `c1ccc2c(c1)c1cccc3ccc4cccc2c4c31` from this test.
Reply: inactive
